Biological target: T1, human αvβ6 on 293F:huβ6 cells (human, UniProt P06756 31-1048; P18564 22-788)
T1 chain 1: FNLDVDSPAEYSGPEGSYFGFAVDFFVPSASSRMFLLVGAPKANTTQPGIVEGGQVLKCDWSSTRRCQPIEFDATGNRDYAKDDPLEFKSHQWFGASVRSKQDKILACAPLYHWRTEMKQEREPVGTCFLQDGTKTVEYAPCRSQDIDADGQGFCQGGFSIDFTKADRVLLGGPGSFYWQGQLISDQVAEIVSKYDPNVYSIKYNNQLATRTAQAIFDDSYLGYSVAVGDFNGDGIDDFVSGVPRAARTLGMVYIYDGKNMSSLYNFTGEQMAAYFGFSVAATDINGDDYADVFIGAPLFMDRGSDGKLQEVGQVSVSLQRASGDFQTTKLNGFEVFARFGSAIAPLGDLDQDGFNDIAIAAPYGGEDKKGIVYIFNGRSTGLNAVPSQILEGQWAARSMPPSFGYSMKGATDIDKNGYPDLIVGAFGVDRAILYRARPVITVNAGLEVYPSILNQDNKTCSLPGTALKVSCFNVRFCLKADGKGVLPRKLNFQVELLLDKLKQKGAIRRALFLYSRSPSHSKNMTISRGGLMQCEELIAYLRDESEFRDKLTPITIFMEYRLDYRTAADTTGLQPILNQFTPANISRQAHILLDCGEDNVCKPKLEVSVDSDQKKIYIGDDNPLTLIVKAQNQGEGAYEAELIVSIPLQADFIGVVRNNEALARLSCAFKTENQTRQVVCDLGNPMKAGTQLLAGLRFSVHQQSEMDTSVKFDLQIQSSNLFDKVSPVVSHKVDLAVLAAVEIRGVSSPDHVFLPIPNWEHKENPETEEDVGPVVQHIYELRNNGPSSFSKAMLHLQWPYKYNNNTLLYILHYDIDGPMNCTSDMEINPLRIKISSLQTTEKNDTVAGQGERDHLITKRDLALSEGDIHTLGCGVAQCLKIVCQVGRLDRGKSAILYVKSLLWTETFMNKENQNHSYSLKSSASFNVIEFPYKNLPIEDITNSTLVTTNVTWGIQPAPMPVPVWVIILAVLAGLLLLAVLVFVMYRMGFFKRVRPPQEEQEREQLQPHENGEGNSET
T1 chain 2: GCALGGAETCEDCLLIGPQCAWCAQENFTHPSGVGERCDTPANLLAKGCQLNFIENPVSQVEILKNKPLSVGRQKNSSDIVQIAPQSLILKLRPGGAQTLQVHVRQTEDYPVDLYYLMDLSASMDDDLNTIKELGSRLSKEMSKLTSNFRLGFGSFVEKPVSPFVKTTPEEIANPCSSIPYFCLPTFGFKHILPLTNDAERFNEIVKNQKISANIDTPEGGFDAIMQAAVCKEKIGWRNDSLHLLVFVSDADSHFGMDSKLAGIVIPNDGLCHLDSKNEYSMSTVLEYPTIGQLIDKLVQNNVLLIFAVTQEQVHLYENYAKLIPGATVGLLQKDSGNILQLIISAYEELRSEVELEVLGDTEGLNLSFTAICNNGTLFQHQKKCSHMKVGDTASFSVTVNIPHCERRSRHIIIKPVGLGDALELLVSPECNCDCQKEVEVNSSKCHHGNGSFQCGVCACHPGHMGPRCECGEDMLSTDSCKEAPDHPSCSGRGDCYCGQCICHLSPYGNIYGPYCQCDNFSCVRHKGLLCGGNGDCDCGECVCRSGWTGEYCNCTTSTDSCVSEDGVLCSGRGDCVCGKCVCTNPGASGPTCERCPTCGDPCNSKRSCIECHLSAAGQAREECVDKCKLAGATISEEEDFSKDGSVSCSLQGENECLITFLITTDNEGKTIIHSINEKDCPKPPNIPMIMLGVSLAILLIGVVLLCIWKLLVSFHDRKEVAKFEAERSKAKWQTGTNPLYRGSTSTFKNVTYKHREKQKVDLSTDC
Test: competition binding on 293F cells; 2nM m2A2-AF647 competitor
pEC50 overview
FYI, pEC50 means -log10 of a concentration in mol per litre.

h2A2 HCLH (antibody, V domains shown) VH: QFQLVQSGAEVKKPGASVKVSCKASGYSFTDYNVNWVRQAPGQGLEWIGVINPKYGTTRYNQKFKGRATLTVDKSTSTAYMELSSLRSEDTAVYYCTRGLNAWDYWGQGTLVTVSS VL: DIQMTQSPSSLSASVGDRVTITCGASENIYGALNWYQQKPGKAPKLLIYGATNLADGVPSRFSGSGSGRDFTFTISSLQPEDIATYYCQNVLTTPYTFGQGTKLEIKR | 7.34

Noted for h2A2 HCLE (antibody, V domains shown) VH: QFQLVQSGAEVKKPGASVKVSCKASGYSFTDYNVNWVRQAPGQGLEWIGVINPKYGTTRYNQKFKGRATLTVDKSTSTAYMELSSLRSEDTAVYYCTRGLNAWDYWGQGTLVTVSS VL: DIQMTQSPSSLSASVGDRVTITCQASENIYGALNWYQQKPGKAPKLLIYGATNLADGVPSRFSGSGSGRDYTFTISSLQPEDIATYYCQNVLTTPYTFGQGTKLEIKR : its pEC50 reads 8.70

h2A2 HCLG humanized antibody (antibody, human IgG1, kappa, V domains shown, Labelled with AlexaFluor-647 in the saturation assay; also called humanized 2A2 HCLG) VH: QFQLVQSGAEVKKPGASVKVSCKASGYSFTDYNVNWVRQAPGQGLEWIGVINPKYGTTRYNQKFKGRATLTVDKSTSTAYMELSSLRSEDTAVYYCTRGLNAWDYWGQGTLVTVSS VL: DIQMTQSPSSLSASVGDRVTITCGASENIYGALNWYQQKPGKAPKLLIYGATNLEDGVPSRFSGSGSGRDYTFTISSLQPEDIATYYCQNVLTTPYTFGQGTKLEIKR yielded pEC50 of 9.00

Looking up murine monoclonal antibody 2A2 (antibody, V domains shown, Mouse hybridoma IgG; also called m2A2; mouse 2A2) VH: EFQLQQSGPELVKPGASVKISCKASGYSFTDYNVNWVKQSNGKSLEWIGVINPKYGTTRYNQKFKGKATLTVDKPSSTAYMQLNSLTSEDSAVYYCTRGLNAWDYWGQGASVTVSS VL: DIQMTQSPASLSASVGETVTITCGASENIYGALNWYQRKQGKSPQLLIYGATNLADGMSSRFSGSGSGRQYSFKISSLHPDDVATYYCQNVLTTPYTFGGGTKLEIK , I see its pEC50 listed as 8.52
